Value source: patent US9102670B2

tested on: phosphorylation of Serine 473 in Akt; experiment: In Vitro Phospho-Ser473 Akt Assay in MDA-MB-468 cells; type: cell-based; details: Homo sapiens, MDA-MB-468, read-out: IC50 values against mTOR, phospho-Ser473 Akt assay, MDA-MB-468 cells
pIC50: −log10 of the molar value.
Please provide measured pIC50 for the entries that follow.

Noted for COCCNC(=O)c1cccc(-c2ccc3c(N4CCOC[C@@H]4C)nc(N4CCOC[C@@H]4C)nc3n2)c1 [Example 1be] : its pIC50 reads > 7.00

Noted for CNCc1ccc(-c2ccc3c(N4CCOC[C@@H]4C)nc(N4CCOC[C@@H]4C)nc3n2)cc1 [Example 4a] : its pIC50 reads > 7.00

Noted for C[C@H]1COCCN1c1nc(N2CCCCC2CO)nc2nc(-c3cccc(C(N)=O)c3)ccc12 (stereo partly shown) [Example 2f] : its pIC50 reads > 6.52

Noted for COc1ccc(-c2ccc3c(N4CCOC[C@@H]4C)nc(N4CCCCO4)nc3n2)cc1CO [Example 18dd] : its pIC50 reads > 6.52

Noted for COc1ccc(-c2ccc3c(N4CCOC[C@@H]4C)nc(N4CCC(c5ccc(Cl)cc5)CC4)nc3n2)cc1CO [Example 18aq] : its pIC50 reads > 6.52

Noted for C[C@H]1COCCN1c1nc(N2CCOC[C@@H]2C)c2ccc(-c3ccc(F)c(CN(C)C)c3)nc2n1 [Example 4af] : its pIC50 reads > 7.00

Noted for C[C@H]1COCCN1c1nc(N2CCOC[C@@H]2C)c2ccc(-c3cccc(CN4CC[C@H](O)C4)c3)nc2n1 [Example 4s] : its pIC50 reads > 7.00
